Target: CCK receptor (pancreas) (Rattus norvegicus)
Construct: The whole pancreas was dissected free of fat tissue and was homogenized; from tissue; host or cells: rat pancreas membranes (Sprague-Dawley)
Sequence (P30551 whole entry): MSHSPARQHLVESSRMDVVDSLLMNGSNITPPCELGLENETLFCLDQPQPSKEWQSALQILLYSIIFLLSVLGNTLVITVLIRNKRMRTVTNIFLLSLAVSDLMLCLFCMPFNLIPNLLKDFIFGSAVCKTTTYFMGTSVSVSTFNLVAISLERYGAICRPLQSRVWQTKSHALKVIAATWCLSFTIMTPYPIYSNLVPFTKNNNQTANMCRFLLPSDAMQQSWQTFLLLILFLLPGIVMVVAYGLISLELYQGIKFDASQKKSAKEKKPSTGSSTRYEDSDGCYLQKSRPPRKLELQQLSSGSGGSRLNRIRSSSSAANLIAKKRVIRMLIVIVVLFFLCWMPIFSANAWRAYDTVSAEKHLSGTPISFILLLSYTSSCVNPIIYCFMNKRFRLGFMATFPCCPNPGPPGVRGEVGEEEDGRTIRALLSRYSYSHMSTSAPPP
Experiment: CCK Receptor Binding (Pancreas): inhibition of ^125 I-CCK-33 binding
Design: species or system Male Sprague-Dawley rats
Conditions: IC50 ^125 I-CCK Pancreas, rat pancreas membranes, ^125 I-CCK-33, 37° C., 30 minutes
Class membership depends on IC50 alone; the intervals are low = under 50 nM, moderate = from 50 nM up to 600 nM, high = 600 nM and over

Worked examples follow.
>  <Compound>
CC1=C(C(=O)NC2N=C(c3ccccc3F)c3ccccc3NC2=O)Cc2ccccc21 (racemic) [Example 115]

>  <Label Value>
low

$$$$
>  <Compound>
O=C(NC1N=C(c2ccccc2F)c2ccccc2NC1=O)c1ccc(Cl)cc1 (racemic) [Example 111]

>  <Label Value>
low

$$$$
>  <Compound>
O=C(OC1N=C(c2ccccc2F)c2ccccc2N(C(=O)c2ccc(Cl)cc2)C1=O)c1ccc(Cl)cc1 (racemic) [Example 178]

>  <Label Value>
high

$$$$
>  <Compound>
CN1C(=O)C(NC(=O)[C@@H](Cc2ccccc2)NC(=O)OC(C)(C)C)N=C(c2ccccc2F)c2ccccc21 (stereo partly shown) [Example 231]

>  <Label Value>
moderate

$$$$

Hello team, could you let me know which band the following compound falls into: CN1C(=O)[C@@H](Cc2cn(C)c3ccccc23)N=C(c2ccccc2F)c2ccccc21 [4a & 44]
moderate

Hello team, could you let me know which band the following compound falls into: CN1C(=O)[C@@H](NC(=O)Nc2ccccc2Cl)N=C(c2ccccc2)c2ccccc21 [Example 276]
low
